- MEASUREMENT NOTES: Determination of brain to plasma ratio in rat
- Type: in vivo
- TEST PARAMETERS: brain and plasma, female Sprague Dawley rats, drug in brain over drug in plasma, read-out: Brain/Plasma Ratio of compound in Rat
PROPERTY LABEL: Kp
Reply: number alone, nothing else.

Kp reported for this compound Cn1c(-c2ccncc2)nnc1N1CCC[C@@H]1c1cn(-c2cccc(Cl)c2)nn1 [Example 8.1] : 0.03
